# Study Target: human CCR8 (human, UniProt P51685 1-355)
# Assay: cell-based or functional assay
Metric Name: hCCL1 (100 nM) residual response, Protocol #3, mAb 0.05 µg/mL

What hCCL1 (100 nM) residual response, Protocol #3, mAb 0.05 µg/mL value was documented for this binder, 3-5 (antibody, V domains shown) VH: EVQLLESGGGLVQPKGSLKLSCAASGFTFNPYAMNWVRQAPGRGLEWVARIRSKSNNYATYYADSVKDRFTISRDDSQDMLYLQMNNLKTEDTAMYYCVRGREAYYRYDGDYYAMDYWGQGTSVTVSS VL: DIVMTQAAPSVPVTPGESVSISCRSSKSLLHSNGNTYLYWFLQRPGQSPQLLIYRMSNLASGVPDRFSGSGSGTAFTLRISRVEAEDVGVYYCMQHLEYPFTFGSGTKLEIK ?
77%

Origin of values: patent US20260234276A1
